tested on: α7 integrin promoter; assay: muscle cell-based assay: α7βgal+/− myoblasts/myotubes, LacZ reporter, β-galactosidase cleavage of FDG; design: species or system mouse; settings: Myotubes; compound at 5 uM
TEST READOUT: Results in a α7+/− β-galactosidase assay, Myotubes, 5 uM

COMPOUND: O=C(O)c1csc(-c2cccs2)n1 [drawing 362]
OBSERVED RESULT: 0.2451

COMPOUND: CCN(CC)C(=O)c1sc2nc(-c3ccc(OC)cc3)cn2c1C [drawing 412]
OBSERVED RESULT: 0.1198

COMPOUND: COc1ccc(CCNC(=O)Cn2nnc(C(=O)Nc3ccc(Br)cc3)c2N)cc1OC [drawing 325]
OBSERVED RESULT: −0.07294

COMPOUND: COc1ccc2c(c1)C(=C(C#N)C#N)C(=O)N2CCc1ccccc1 [drawing 314]
OBSERVED RESULT: 0.04228

COMPOUND: COC(=O)c1ccc(/N=N/c2ccccc2)cc1 [drawing 405]
OBSERVED RESULT: −0.1462

COMPOUND: CC(NC(=O)c1ccc(C(C)(C)C)cc1)C(c1cccs1)N1CCOCC1 (stereo not drawn) [drawing 402]
OBSERVED RESULT: 0.06551

COMPOUND: Cc1ccccc1-n1c(S)nnc1Cc1cccs1 [drawing 312]
OBSERVED RESULT: −0.03653

COMPOUND: O=C(Nc1ccccc1OC(=O)c1ccc(Cl)cc1)c1ccc(Cl)cc1 [drawing 401]
OBSERVED RESULT: −0.09525

COMPOUND: CCOc1ccccc1NC(=O)c1cccc2c1C(=O)N(C1CCCCC1)C2 [drawing 499]
OBSERVED RESULT: −0.3317

COMPOUND: Cc1ccc2c(c1)/C(=C/c1ccc(F)cc1)C(=O)N2 [drawing 317]
OBSERVED RESULT: 0.0903

COMPOUND: O=C1c2ccccc2C(=O)C1(CC(O)O)c1ccccc1 [drawing 474]
OBSERVED RESULT: −0.2367

COMPOUND: CC(C)(C)c1ccc(C(=O)OCC(=O)Nc2sc3c(c2C#N)CCC3)cc1 [drawing 470]
OBSERVED RESULT: 0.4586

COMPOUND: CC(C(=O)Nc1ccc(C#N)cc1)N(C)CC(=O)Nc1cccc(F)c1 (stereo not drawn) [drawing 422]
OBSERVED RESULT: 0.1526

COMPOUND: CCOc1cc(C)c(S(=O)(=O)N2CCCCC2)cc1C [drawing 471]
OBSERVED RESULT: −0.1415

COMPOUND: O=C(NCCc1ccccc1)C1CCC(=O)N1C1CCCC1 (stereo not drawn) [drawing 351]
OBSERVED RESULT: 0.08688

COMPOUND: COc1cc(C=O)ccc1OCC(=O)Nc1ccc2c(c1)OCO2 [drawing 425]
OBSERVED RESULT: 0.1998

COMPOUND: Cc1ccc2c(c1)/C(=C/c1ccccc1F)C(=O)N2 [drawing 459]
OBSERVED RESULT: −0.2089

COMPOUND: Cc1ccccc1S(=O)(=O)N1C[C@H]2CON(C)[C@H]2C[C@H]1c1cccc(-c2ccccc2)c1 [drawing 436]
OBSERVED RESULT: −0.2012

COMPOUND: O=C1Nc2ccccc2/C1=C/c1ccccc1Cl [drawing 321]
OBSERVED RESULT: −0.0494

COMPOUND: CCOc1ccc2nc(Cl)sc2c1 [drawing 370]
OBSERVED RESULT: −0.02718

COMPOUND: CCc1c(C)sc(NC(=O)c2ccco2)c1C#N [drawing 320]
OBSERVED RESULT: 0.6497

COMPOUND: CCOn1c(=O)c(-c2ccccc2)[n+]([O-])c2ccccc21 [drawing 332]
OBSERVED RESULT: 0.2514

COMPOUND: CCOc1ccccc1Nc1cc2n(c(=O)n1)CCc1cc(OC)c(OC)cc1-2 [drawing 438]
OBSERVED RESULT: −0.255

COMPOUND: COCCSc1ccccc1C(=O)Nc1cc(C)cc(C)c1 [drawing 387]
OBSERVED RESULT: −0.1086

COMPOUND: O=c1c2cc(-c3ccccc3)sc2nc2n1N=C(c1ccccc1)CS2 [drawing 485]
OBSERVED RESULT: 0.0299

COMPOUND: Nc1ncnc(NCc2ccccc2)c1[N+](=O)[O-] [drawing 486]
OBSERVED RESULT: 0.2507

COMPOUND: CC(C)c1ccc(OC(=O)c2cccc(S(=O)(=O)N3CCN(C)CC3)c2)cc1 [drawing 398]
OBSERVED RESULT: −0.2473
